Recorded measurements of growth inhibition, one per entry
protocol_details: NCI Yeast Anticancer Drug Screen. Data for the sgs1 mgt1 strain (AID 161);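 note: 0% = growth of cultures given vehicle only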
condition_summary: S. cerevisiae sgs1 mgt1 strain, at 50.0 µM, stronger effect = higher value
This is part of a sample that, as a whole, favours compounds with a hit. Of some 79,000 tested, about 15% had one in any assay.
Numbers only; they are read as %.

{"compound": "CNC(=S)NC", "unit": "%", "growth inhibition": 13.4}
{"compound": "C/C(=N\\Sc1cccc([N+](=O)[O-])c1)c1ccccc1O", "unit": "%", "growth inhibition": 96.2}
{"compound": "CCOC(=O)C1CCC(=O)C(CC)=C1C (configuration not stated)", "unit": "%", "growth inhibition": 8.5}
{"compound": "CSC(=S)Nc1cc(C)cc(C)n1", "unit": "%", "growth inhibition": 62.1}

**Q:** Identify measured growth inhibition associated with O=[N+]([O-])c1cccc(-c2csc(NNC3=NC/C(=C/c4ccc5c(c4)OCO5)S3)n2)c1
**A:** 33

**Q:** Identify measured growth inhibition associated with N#CC(c1ccccc1)C1CCCCC1 (configuration not stated)
**A:** -4.95

**Q:** Identify measured growth inhibition associated with O=C(Cl)CNS(=O)(=O)c1ccccc1
**A:** 1

====

Recorded measurements of growth inhibition, one per entry
protocol_details: NCI Yeast Anticancer Drug Screen. Data for the rad50 strain (AID 155);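 note: 0% = growth of vehicle-only cultures of the same strain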
condition_summary: S. cerevisiae rad50 strain growth inhibition; at 50.0 µM; stronger effect = higher value
The panel holds about 79,000 compounds, 15% with a hit somewhere; the sample as a whole holds those more often. Activity calls are given as the source filed them. No stated cut-off is given here; in the data, active means growth inhibition above about 70%; inactive means the rest.

Worked examples follow.
{"molecule": "O=C(/C=C/NC(=O)OCc1ccccc1)OCc1ccccc1", "growth inhibition": "9.35% (inactive)"}
{"molecule": "CC(C)N(CC(=O)O)CC(=O)O", "growth inhibition": "-0.95% (inactive)"}
{"molecule": "S=c1nn[nH]n1C1CCCCC1", "growth inhibition": "8.05% (inactive)"}
{"molecule": "CC(=O)Nc1ccc2c(c1)C(N1CCCCC1)c1ccccc1-2 (stereo not drawn)", "growth inhibition": "-42.2% (inactive)"}
{"molecule": "O=C(O)C1CSC(c2ccccc2O)N1 (stereo not drawn)", "growth inhibition": "-17.6% (inactive)"}
{"molecule": "NNC(=O)Nc1ccccc1", "growth inhibition": "3.8% (inactive)"}
{"molecule": "CCOC(=O)c1ccccc1C(=O)c1ccccc1O", "growth inhibition": "-5.8% (inactive)"}
{"molecule": "CS(=O)(=O)OCCN(CCOS(C)(=O)=O)c1ccc(N=Nc2ccccc2C(=O)O)cc1", "growth inhibition": "27.9% (inactive)"}
{"molecule": "COC(=O)c1ccc(N=Nc2ncc(CC(NC(C)=O)C(=O)OC)[nH]2)cc1 (stereo not drawn)", "growth inhibition": "-16.9% (inactive)"}
{"molecule": "CC(C)C(NC(=O)c1ccccc1C(=O)O)c1ccccc1 (stereo not drawn)", "growth inhibition": "6.3% (inactive)"}

**Q:** Identify measured growth inhibition associated with CCOC(=O)c1cn(Cc2ccccc2)c(=O)n1Cc1ccccc1
**A:** 36% (inactive)

**Q:** Identify measured growth inhibition associated with CS(=O)(=O)OCCN1C(=O)CNC1=O
**A:** 4.6% (inactive)

**Q:** Identify measured growth inhibition associated with Nc1cc(NC(=O)CO)cc(C(=O)O)c1
**A:** 14.2% (inactive)

====

Recorded measurements of growth inhibition, one per entry
protocol_details: NCI Yeast Anticancer Drug Screen. Data for the bub3 strain (AID 167)
condition_summary: S. cerevisiae bub3 mutant strain, at 50.0 µM, stronger effect = higher value
This is part of a sample that, as a whole, favours compounds with a hit. Of some 79,000 tested, about 15% had one in any assay.
Numbers only; they are read as %.

Worked examples follow.
{"compound": "CC(=O)NNc1nc(C)c(C(/C=C/c2ccc(/C=C/C(=N\\NC(=O)c3ccncc3)c3sc(NNC(C)=O)nc3C)cc2)=N/NC(=O)c2ccncc2)s1", "data_value": 1.4}
{"compound": "O=S(=O)(N1CCCCC1)N1CCCCC1", "data_value": 10.2}
{"compound": "N#CC1=CN(Cc2ccccc2)C(c2ccccc2)C=C1 (configuration not stated)", "data_value": 35.9}
{"compound": "O=P(O)(O)OC1C(OP(=O)(O)O)C(OP(=O)(O)O)C(OP(=O)(O)O)C(OP(=O)(O)O)C1OP(=O)(O)O.[Cu+2] (configuration not stated)", "data_value": -9}
{"compound": "COc1cc(/C=C/C(=O)c2ccccc2O)cc(OC)c1OC", "data_value": -9.15}
{"compound": "O=c1nc(Sc2ccccc2)ccn1C1OC(CO)C(O)C1O (configuration not stated)", "data_value": 6.55}
{"compound": "c1ccc(-c2cc(-c3ccncc3)cc(-c3ccncc3)n2)cc1", "data_value": -1.9}
{"compound": "O=C(O)/C=C/S(=O)(=O)Cc1ccccc1", "data_value": 7.5}
{"compound": "Cc1cc(NS(=O)(=O)c2ccc(NC(=O)c3ccc(Cl)c4c(Nc5ccc(S(N)(=O)=O)cc5)c5ccccc5nc34)cc2)no1", "data_value": 31.4}
{"compound": "CCCC(=O)OCC(COC(=O)CCC)OC(=O)CCC", "data_value": 4.9}

# ---- query compound ----
**Q:** Identify measured growth inhibition associated with Cc1[nH]n(-c2ccccc2)c(=O)c1/C=N\C(N)=S
**A:** -48

====

protocol_details: NCI Yeast Anticancer Drug Screen. Data for the bub3 strain (AID 167)
condition_summary: S. cerevisiae bub3 mutant strain, at 50.0 µM, stronger effect = higher value
This is part of a sample that, as a whole, favours compounds with a hit. Of some 79,000 tested, about 15% had one in any assay.
measured_quantity: growth inhibition (%)
Numbers only; they are read as %.

Worked examples follow.
{"compound": "CCOC(=O)/C(C#N)=C/c1cc(Br)c(O)c(OC)c1", "growth inhibition, %": 6.25}
{"compound": "CN1C(=O)C(O)(c2c3c(c(C4(O)C(=O)N(C)c5ccccc54)c4c2OCO4)OCO3)c2ccccc21 (centres undefined)", "growth inhibition, %": -5.2}
{"compound": "O=C(Nc1ccc2ncccc2c1)Nc1ccc2ncccc2c1", "growth inhibition, %": -10.4}
{"compound": "Cn1c(=O)c2[nH]c(=S)[nH]c2n(C)c1=O", "growth inhibition, %": -18.2}
{"compound": "COc1ccc(S(=O)(=O)Oc2ccc(Cl)cc2)cc1", "growth inhibition, %": 42.5}
{"compound": "COc1cc(OC)c2cnc(Cl)cc2c1", "growth inhibition, %": -2.85}

**Q:** Identify measured growth inhibition associated with COC(=O)NC(c1ccccc1)C(C)I (centres undefined)
**A:** 3.25

**Q:** Identify measured growth inhibition associated with CC(NC(=O)CCl)c1ccccc1 (centres undefined)
**A:** 4.25

**Q:** Identify measured growth inhibition associated with CCCOC(=O)c1ccc(Cl)c(Cl)c1
**A:** -6.15

**Q:** Identify measured growth inhibition associated with O=NC1CCCCC1Cl (centres undefined)
**A:** 7.05

**Q:** Identify measured growth inhibition associated with CC1OC(c2ccccc2Cl)OC1C (centres undefined)
**A:** -3.05

**Q:** Identify measured growth inhibition associated with CC(=O)Nc1ccccc1NOC(=O)c1ccccc1NC(C)=O
**A:** 25.1

**Q:** Identify measured growth inhibition associated with Cc1ccc(S(=O)(=O)n2ccnc2)cc1
**A:** 11.7

**Q:** Identify measured growth inhibition associated with Cc1cn(C2CCCCC2O)c(=O)[nH]c1=O (centres undefined)
**A:** -15.1

====

protocol_details: NCI Yeast Anticancer Drug Screen. Data for the rad50 strain (AID 155);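 note: 0% = growth of vehicle-only cultures of the same strain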
condition_summary: S. cerevisiae rad50 strain growth inhibition; at 50.0 µM; stronger effect = higher value
Compounds without any hit were thinned out: in the full panel of roughly 79,000, 15% have a hit.
measured_quantity: growth inhibition (%)
Numbers only; they are read as %.

{"compound": "CNC(=S)N/N=C(C)\\C=N/Nc1ccc(Br)cc1", "unit": "%", "data_value": 46.4}
{"compound": "Cc1ccc(C(=O)NCCN2CCCC2)c([N+](=O)[O-])c1OCc1ccccc1", "unit": "%", "data_value": 6.15}
{"compound": "CN(C)CCOC(=O)c1cccc(CCl)c1", "unit": "%", "data_value": 15.9}
{"compound": "CC(=O)Nc1nc(C)c(CC/C=C/c2ccc([N+](=O)[O-])cc2)c(=O)[nH]1", "unit": "%", "data_value": 4.75}
{"compound": "CN(Cc1ccccc1)N=NCc1ccccc1", "unit": "%", "data_value": 15.8}

# ---- query compound ----
**Q:** Identify measured growth inhibition associated with Cc1cc(Br)cc(C)c1NC(=O)C(=O)C(C(=O)c1ccncc1)C1OC(=O)c2ccccc21 (stereo not given)
**A:** -12.6

====

protocol_details: NCI Yeast Anticancer Drug Screen. Data for the bub3 strain (AID 167)
condition_summary: S. cerevisiae bub3 mutant strain, at 50.0 µM, stronger effect = higher value
About 79,000 compounds went through this panel and 15% of them were active in at least one assay; those are over-represented in the sample as a whole. Where a SMILES comes first, the peptide text is derived from it. Bridges are numbered along the chain shown (N, C = ends). Roman numbers before positions name the chains, in order.
measured_quantity: growth inhibition (%)
Numbers only; they are read as %.

{"compound": "O=C1Nc2c(cccc2-c2ccccc2)C(=O)C1(O)c1ccccc1 (stereo not given)", "data_value": -2.6}
{"compound": "C=C1C(=O)O[C@@H]2[C@H]1CC[C@H](C)[C@@H]1CCC(=O)[C@@]21C", "data_value": 12.8}
{"compound": "C#CC(C)(C)CC", "data_value": -8.1}
{"compound": "CCC(c1ccc(OC)cc1)c1cc2c(cc1OCCO)OCO2 (stereo not given)", "data_value": 58.1}
{"compound": "O/N=C1/CCCCC1NO (stereo not given)", "data_value": -10.8}

**Q:** Identify measured growth inhibition associated with CC(C)CC(NC(=O)C(N)CSSCC(N)C(=O)NC(CC(C)C)C(=O)O)C(=O)O (stereo not drawn) (I: H-Cys-Leu-OH / II: H-Cys-Leu-OH; disulfide I:1-II:1; configuration not given here)
**A:** -1.25

**Q:** Identify measured growth inhibition associated with CC(=O)NNc1ncc(C(=O)/C=C/c2ccccc2C)s1
**A:** 22.3

**Q:** Identify measured growth inhibition associated with CCCCCC(=O)Oc1ccccc1OC
**A:** -7.85

**Q:** Identify measured growth inhibition associated with N=C(N)SCCC(=O)CCSC(=N)N
**A:** 15.6

**Q:** Identify measured growth inhibition associated with CCCCCOC(=S)S.[Ag]
**A:** -16.2

The origin of these recorded values is PubChem BioAssay (NCI).
